# Tested on: horse erythrocytes
# protocolText: Hemolytic activity (hemoglobin release from erythrocytes)
# Format: cell-based
# measurementSetup: D-amino acid lipopeptides, 250 µM, TRIS buffer pH 7.2, 1 h, 37 °C, relative to melittin, ± confidence interval (α = 0.05)
Where a SMILES comes first, the peptide text is derived from it. [ ]: non-standard residue; d: D form. The star is where a group is joined. Lauroyl = CCCCCCCCCCCC(=O)*; Butyryl = CCCC(=O)*
observable: Hemolysis (%) 250 µM
Give the value, in units of %, as a plain number.

# example entries with known answers
Query string: Identify measured Hemolysis (%) 250 µM corresponding to CCCCCCCCCCCC(=O)NCCCC[C@H](NC(=O)[C@H](CCCCN)NC(=O)[C@H](CCCCN)NC(=O)[C@@H](Cc1ccccc1)NC(=O)[C@H](CC(C)C)NC(=O)[C@H](CCCCN)NC(=O)[C@H](CCCCN)NC(C)=O)C(=O)N[C@@H](CC(C)C)C(=O)N[C@@H](CCCCN)C(=O)N[C@@H](Cc1ccc(O)cc1)C(=O)N[C@@H](CC(C)C)C(N)=O [BP489, Ac-KKLfKKK(COC11H23)LKYL-NH2] (Ac-KKL[dF]KKK(Lauroyl)LKYL-NH2)
Result string: 100

Query string: Identify measured Hemolysis (%) 250 µM corresponding to CCCC(=O)NCCCC[C@H](NC(=O)[C@H](Cc1ccc(O)cc1)NC(=O)[C@H](CCCCN)NC(=O)[C@H](CC(C)C)NC(=O)[C@@H](NC(=O)[C@H](CCCCN)NC(=O)[C@H](CCCCN)NC(=O)[C@@H](Cc1ccccc1)NC(=O)[C@H](CC(C)C)NC(=O)[C@H](CCCCN)NC(=O)[C@H](CCCCN)NC(C)=O)[C@@H](C)CC)C(N)=O [BP496, Ac-KKLfKKILKYK(COC3H7)-NH2] (Ac-KKL[dF]KKILKYK(Butyryl)-NH2)
Result string: 1

Query string: Identify measured Hemolysis (%) 250 µM corresponding to CCCCCCCCCCCC(=O)NCCCC[C@H](NC(=O)[C@@H](NC(=O)[C@H](CCCCN)NC(=O)[C@H](CCCCN)NC(=O)[C@@H](Cc1ccccc1)NC(=O)[C@H](CC(C)C)NC(=O)[C@H](CCCCN)NC(=O)[C@H](CCCCN)NC(C)=O)[C@@H](C)CC)C(=O)N[C@@H](CCCCN)C(=O)N[C@@H](Cc1ccc(O)cc1)C(=O)N[C@@H](CC(C)C)C(N)=O [BP490, Ac-KKLfKKIK(COC11H23)KYL-NH2] (Ac-KKL[dF]KKIK(Lauroyl)KYL-NH2)
Result string: 100

Query string: Identify measured Hemolysis (%) 250 µM corresponding to CCCCCCCCCCCC(=O)NCCCC[C@@H](NC(=O)[C@H](CC(C)C)NC(=O)[C@H](CCCCN)NC(=O)[C@H](CCCCN)NC(C)=O)C(=O)N[C@@H](CCCCN)C(=O)N[C@@H](CCCCN)C(=O)N[C@H](C(=O)N[C@@H](CC(C)C)C(=O)N[C@@H](CCCCN)C(=O)N[C@@H](Cc1ccc(O)cc1)C(=O)N[C@@H](CC(C)C)C(N)=O)[C@@H](C)CC
Result string: 86

Could you now consider this next compound?
Query string: Identify measured Hemolysis (%) 250 µM corresponding to CCCC(=O)N[C@@H](CCCCN)C(=O)N[C@@H](CCCCN)C(=O)N[C@@H](CC(C)C)C(=O)N[C@H](Cc1ccccc1)C(=O)N[C@@H](CCCCN)C(=O)N[C@@H](CCCCN)C(=O)N[C@H](C(=O)N[C@@H](CC(C)C)C(=O)N[C@@H](CCCCN)C(=O)N[C@@H](Cc1ccc(O)cc1)C(=O)N[C@@H](CC(C)C)C(N)=O)[C@@H](C)CC
Result string: 24
